Recorded measurements of pEC50, one per entry
Test system: Human immunodeficiency virus 1
method description: Antiviral activity against HIV1 3B infected in human MT-2 cells by two fold dilution method in presence of 10% FBS, HSA and alpha1-AGP
Assay type: functional, organism-based
applied conditions: Human immunodeficiency virus 1, 3B, MT2
pEC50: −log10 of the molar value.
endpoint label: pEC50

smi | endpoint label | reported measurement
Cc1nnc(C(=O)NC(C)(C)c2nc(C(=O)NCc3ccc(F)cc3)c(O)c(=O)n2C)o1 | pEC50 | 7.74
COc1cc2c(cc1Cc1cccc(Cl)c1F)c(=O)c(C(=O)O)cn2[C@@H](CO)C(C)C | pEC50 | 7.62
CN(c1c2c(c(O)c3ncccc13)C(=O)N(Cc1ccc(F)cc1)C2)S(C)(=O)=O | pEC50 | 7.82
O=C(NCc1ccc(F)cc1)c1nc(N2CCCCS2(=O)=O)c2cccnc2c1O | pEC50 | 7.37

* * *

Tested on: Human immunodeficiency virus 1
method description: Selectivity ratio of EC50 for antiviral activity against HIV1 harboring L74M mutation in catalytic core domain of integrase to EC50 for antiviral activity against wild-type HIV1 3B
Type: functional
endpoint label: Ratio EC50

compound | endpoint label | reported measurement
CC(C)c1nc(COC(N)=O)n(Cc2ccncc2)c1Sc1cc(Cl)cc(Cl)c1 [CAPRAVIRINE] | Ratio EC50 | 1
Nc1nc(=O)n([C@@H]2CS[C@H](CO)O2)cc1F [EMTRICITABINE] | Ratio EC50 | 1
CC(C)OC(=O)OCOP(=O)(CO[C@H](C)Cn1cnc2c(N)ncnc21)OCOC(=O)OC(C)C.O=C(O)/C=C/C(=O)O [TENOFOVIR DISOPROXIL FUMARATE] | Ratio EC50 | 1
Cc1cccc(C)c1OCC(=O)N[C@@H](Cc1ccccc1)[C@@H](O)C[C@H](Cc1ccccc1)NC(=O)[C@H](C(C)C)N1CCCNC1=O [LOPINAVIR] | Ratio EC50 | 1
CN(c1c2c(c(O)c3ncccc13)C(=O)N(Cc1ccc(F)cc1)C2)S(C)(=O)=O | Ratio EC50 | 1
O=C(NCc1ccc(F)cc1)c1nc(N2CCCCS2(=O)=O)c2cccnc2c1O | Ratio EC50 | 1

* * *

Tested on: Human immunodeficiency virus 1
method description: Selectivity ratio of EC50 for antiviral activity against PI-resistant HIV1 harboring […], V82A and L90M mutant gene to EC50 for antiviral activity against wild-type HIV1 3B
Type: functional
endpoint label: Ratio EC50

compound | reported measurement
CN(c1c2c(c(O)c3ncccc13)C(=O)N(Cc1ccc(F)cc1)C2)S(C)(=O)=O | 1
Cc1cccc(C)c1OCC(=O)N[C@@H](Cc1ccccc1)[C@@H](O)C[C@H](Cc1ccccc1)NC(=O)[C@H](C(C)C)N1CCCNC1=O | 9
CC(C)OC(=O)OCOP(=O)(CO[C@H](C)Cn1cnc2c(N)ncnc21)OCOC(=O)OC(C)C.O=C(O)/C=C/C(=O)O [TENOFOVIR DISOPROXIL FUMARATE] | 1
O=C(NCc1ccc(F)cc1)c1nc(N2CCCCS2(=O)=O)c2cccnc2c1O | 1
CC(C)c1nc(COC(N)=O)n(Cc2ccncc2)c1Sc1cc(Cl)cc(Cl)c1 | 1
Nc1nc(=O)n([C@@H]2CS[C@H](CO)O2)cc1F | 1

* * *

Test system: Human immunodeficiency virus 1
method description: Antiviral activity against 0.01 MOI HIV1 3B infected in human MT-2 cells by two fold dilution method in presence of 100% human serum
Format: functional, organism-based
applied conditions: Human immunodeficiency virus 1, 3B, MT2
endpoint label: EC50 (µM)

smi | endpoint label | value unit | reported measurement
CN(c1c2c(c(O)c3ncccc13)C(=O)N(Cc1ccc(F)cc1)C2)S(C)(=O)=O | EC50 | µM | 0.012
COc1cc2c(cc1Cc1cccc(Cl)c1F)c(=O)c(C(=O)O)cn2[C@@H](CO)C(C)C | EC50 | µM | 0.083
O=C(NCc1ccc(F)cc1)c1nc(N2CCCCS2(=O)=O)c2cccnc2c1O | EC50 | µM | 0.041

* * *

System: Human immunodeficiency virus 1
method description: Selectivity ratio of EC50 for antiviral activity against EFV-resistant HIV1 selected after 3 passages to EC50 for antiviral activity against wild-type HIV1 3B
Type: functional

compound | assayed target | Ratio EC50
O=C(NCc1ccc(F)cc1)c1nc(N2CCCCS2(=O)=O)c2cccnc2c1O | Human immunodeficiency virus 1 | 1.2
CC(C)CN(C[C@@H](O)[C@H](Cc1ccccc1)NC(=O)O[C@H]1CCOC1)S(=O)(=O)c1ccc(N)cc1 | Human immunodeficiency virus 1 | 1.2
CN(c1c2c(c(O)c3ncccc13)C(=O)N(Cc1ccc(F)cc1)C2)S(C)(=O)=O | Human immunodeficiency virus 1 | 0.9
Nc1ccn([C@@H]2CS[C@H](CO)O2)c(=O)n1 [LAMIVUDINE] | Human immunodeficiency virus 1 | 2

* * *

System: Human immunodeficiency virus 1
method description: Selectivity ratio of EC50 for antiviral activity against NRTI-resistant HIV1 harboring RT-6TAMs mutant gene to EC50 for antiviral activity against wild-type HIV1 3B
Format: functional
The following compounds are listed with their measured Ratio EC50 values.

compound | assayed target | Ratio EC50
Cc1cccc(C)c1OCC(=O)N[C@@H](Cc1ccccc1)[C@@H](O)C[C@H](Cc1ccccc1)NC(=O)[C@H](C(C)C)N1CCCNC1=O | Human immunodeficiency virus 1 | 5
O=C(NCc1ccc(F)cc1)c1nc(N2CCCCS2(=O)=O)c2cccnc2c1O | Human immunodeficiency virus 1 | 1
Nc1nc(=O)n([C@@H]2CS[C@H](CO)O2)cc1F | Human immunodeficiency virus 1 | 23
CC(C)c1nc(COC(N)=O)n(Cc2ccncc2)c1Sc1cc(Cl)cc(Cl)c1 | Human immunodeficiency virus 1 | 762
CN(c1c2c(c(O)c3ncccc13)C(=O)N(Cc1ccc(F)cc1)C2)S(C)(=O)=O | Human immunodeficiency virus 1 | 2
CC(C)OC(=O)OCOP(=O)(CO[C@H](C)Cn1cnc2c(N)ncnc21)OCOC(=O)OC(C)C.O=C(O)/C=C/C(=O)O [TENOFOVIR DISOPROXIL FUMARATE] | Human immunodeficiency virus 1 | 9

* * *

Tested on: Human immunodeficiency virus 1
method description: Selectivity ratio of EC50 for antiviral activity against HIV1 harboring E92V, G140S and V151A mutation in catalytic core domain of integrase to EC50 for antiviral activity against wild-type HIV1 3B
Type: functional

compound | assayed target | Ratio EC50
CN(c1c2c(c(O)c3ncccc13)C(=O)N(Cc1ccc(F)cc1)C2)S(C)(=O)=O | Human immunodeficiency virus 1 | 583
Nc1nc(=O)n([C@@H]2CS[C@H](CO)O2)cc1F | Human immunodeficiency virus 1 | 2
CC(C)c1nc(COC(N)=O)n(Cc2ccncc2)c1Sc1cc(Cl)cc(Cl)c1 | Human immunodeficiency virus 1 | 3
CC(C)OC(=O)OCOP(=O)(CO[C@H](C)Cn1cnc2c(N)ncnc21)OCOC(=O)OC(C)C.O=C(O)/C=C/C(=O)O [TENOFOVIR DISOPROXIL FUMARATE] | Human immunodeficiency virus 1 | 2
O=C(NCc1ccc(F)cc1)c1nc(N2CCCCS2(=O)=O)c2cccnc2c1O | Human immunodeficiency virus 1 | 371
Cc1cccc(C)c1OCC(=O)N[C@@H](Cc1ccccc1)[C@@H](O)C[C@H](Cc1ccccc1)NC(=O)[C@H](C(C)C)N1CCCNC1=O | Human immunodeficiency virus 1 | 2

* * *

Test system: Human immunodeficiency virus 1
method description: Antiviral activity against 0.001 MOI HIV1 BAL infected in human T lymphocyte cells by p24 antigen ELISA in presence of 10% FBS, HSA and alpha1-AGP
Format: functional, organism-based
applied conditions: Human immunodeficiency virus 1, BAL
Quick reference for EC50 among some compounds
endpoint label: EC50 (nM)

smi | reported measurement
O=C(NCc1ccc(F)cc1)c1nc(N2CCCCS2(=O)=O)c2cccnc2c1O | 60
CN(c1c2c(c(O)c3ncccc13)C(=O)N(Cc1ccc(F)cc1)C2)S(C)(=O)=O | 15
COc1cc2c(cc1Cc1cccc(Cl)c1F)c(=O)c(C(=O)O)cn2[C@@H](CO)C(C)C | 16

* * *

Quick reference: Ratio EC50 of the listed items.
System: Human immunodeficiency virus 1
method description: Selectivity ratio of EC50 for antiviral activity against HIV1 harboring G140S mutation in catalytic core domain of integrase to EC50 for antiviral activity against wild-type HIV1 3B
Assay type: functional

compound | Ratio EC50
O=C(NCc1ccc(F)cc1)c1nc(N2CCCCS2(=O)=O)c2cccnc2c1O | 2
CN(c1c2c(c(O)c3ncccc13)C(=O)N(Cc1ccc(F)cc1)C2)S(C)(=O)=O | 2
Cc1cccc(C)c1OCC(=O)N[C@@H](Cc1ccccc1)[C@@H](O)C[C@H](Cc1ccccc1)NC(=O)[C@H](C(C)C)N1CCCNC1=O [LOPINAVIR] | 1
Nc1nc(=O)n([C@@H]2CS[C@H](CO)O2)cc1F [EMTRICITABINE] | 1
CC(C)OC(=O)OCOP(=O)(CO[C@H](C)Cn1cnc2c(N)ncnc21)OCOC(=O)OC(C)C.O=C(O)/C=C/C(=O)O [TENOFOVIR DISOPROXIL FUMARATE] | 1
CC(C)c1nc(COC(N)=O)n(Cc2ccncc2)c1Sc1cc(Cl)cc(Cl)c1 [CAPRAVIRINE] | 2
